Every entry's value here was drawn from ChEMBL document CHEMBL4033786.

assay_notes: Elimination half life in Wistar rat at 1.01 mg/kg, iv measured up to 4 hrs post dose
Assay type: ADME, organism-based
assay_setup: in vivo, read-out: beta t1/2 (converted)
measurement_kind: half-life (h)
Note: unit h is implicit; provide only the numeric part.

Quick note, half-life for CC1=CCC[C@H]1NC(=O)Nc1ccc(Cl)c(S(=O)(=O)C(C)(C)CF)c1O landed at 2.5

====

assay_notes: Fraction unbound in Han-Wistar SOA rat model brain at 2 mg/kg administered via oral gavage by UPLC/MS/MS analysis
Type: ADME, organism-based
measurement_kind: fraction unbound
Returns: the value as a bare number; no unit string appended.

Quick note, fraction unbound for CC1=CCC[C@H]1NC(=O)Nc1ccc(Cl)c(S(=O)(=O)C(C)(C)[C@H]2CCOC2)c1O landed at 0.033

Quick note, fraction unbound for CC1=CCC[C@H]1NC(=O)Nc1ccc(C#N)c(S(=O)(=O)C(C)(C)C)c1O landed at 0.116

====

target_of_assay: C-X-C chemokine receptor type 2 (Homo sapiens)
assay_notes: Antagonist activity at TEV protease cleavage site linked GAL4-VP16-fused recombinant human CXCR2 expressed in cells assessed as inhibition of […] human CXCL1-stimulated beta-arrestin recruitment by CCF4-AM-fluorescence based FRET assay
Format: cell-based
assay_setup: read-out: pIC50 (converted)
measurement_kind: IC50

[
  {
    "test_smiles": "O=C(Nc1ccc(Cl)c(S(=O)(=O)C2(F)CCOCC2)c1O)N[C@@H]1CCC=C1Cl",
    "target_of_assay": "C-X-C chemokine receptor type 2 (Homo sapiens)",
    "IC50": "0.501 nM"
  }
]

Record O=C(Nc1ccc(Cl)c(S(=O)(=O)C2(F)CCOCC2)c1O)N[C@H]1CCC=C1Cl / C-X-C chemokine receptor type 2 (Homo sapiens), IC50 recorded as 100 nM

Record CC1=CCC[C@H]1NC(=O)Nc1ccc(Cl)c(S(=O)(=O)C(C)(C)[C@@H]2CCOC2)c1O / C-X-C chemokine receptor type 2 (Homo sapiens), IC50 recorded as 1.26 nM

Record CC1=CCC[C@H]1NC(=O)Nc1ccc(Cl)c(S(=O)(=O)C(C)(C)C2COC2)c1O / C-X-C chemokine receptor type 2 (Homo sapiens), IC50 recorded as 0.251 nM

====

target_of_assay: C-C chemokine receptor type 4 (Homo sapiens, UniProt P51679)
Sequence (P51679 whole entry): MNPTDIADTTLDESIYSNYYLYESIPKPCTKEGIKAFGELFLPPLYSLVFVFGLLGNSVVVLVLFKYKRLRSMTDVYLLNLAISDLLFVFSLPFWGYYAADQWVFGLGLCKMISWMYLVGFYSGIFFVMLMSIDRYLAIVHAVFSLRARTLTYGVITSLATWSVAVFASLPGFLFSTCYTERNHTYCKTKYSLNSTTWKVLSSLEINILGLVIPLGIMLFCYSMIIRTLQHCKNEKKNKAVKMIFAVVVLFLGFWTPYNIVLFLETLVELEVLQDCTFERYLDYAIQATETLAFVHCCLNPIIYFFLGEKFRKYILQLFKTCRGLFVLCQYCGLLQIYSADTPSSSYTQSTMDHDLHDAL
assay_notes: Agonist activity at CCR4 (unknown origin)
pEC50: −log10 of the molar value.
measurement_kind: pEC50

Record CC1=CCC[C@H]1NC(=O)Nc1ccc(Cl)c(S(=O)(=O)[C@@]2(C)CCOC2)c1O / C-C chemokine receptor type 4 (Homo sapiens, UniProt P51679), pEC50 recorded as < 5.00

====

assay_notes: Clearance in Wistar rat blood at 0.98 mg/kg, iv measured up to 4 hrs post dose
Format: ADME, organism-based
measurement_kind: clearance (mL/min/kg)
Note: unit mL/min/kg is implicit; provide only the numeric part.

Quick note, clearance for CC1=CCC[C@H]1NC(=O)Nc1ccc(Cl)c(S(=O)(=O)[C@@]2(C)CCOC2)c1O landed at 9.1

====

assay_notes: Passive permeability in MDCK2-MDR1 cells transduced with BacMam2-BCRP at 3 uM after 90 mins by Transwell assay
Assay type: ADME, cell-based, Canis lupus familiaris, MDCK-MDR1
assay_setup: dog; read-out: permeability
measurement_kind: Papp at 1.5 h, 3 µM (×10⁻⁶ cm/s)
Note: unit ×10⁻⁶ cm/s is implicit; provide only the numeric part.

Below, 5 compounds whose answers are already recorded.
[
  {
    "compound": "CC1=CCC[C@H]1NC(=O)Nc1ccc(Cl)c(S(=O)(=O)C(C)(C)C(F)(F)F)c1O",
    "unit_spec": "×10⁻⁶ cm/s",
    "Papp at 1.5 h, 3 µM": 33.9
  },
  {
    "compound": "CC1=CCC[C@H]1NC(=O)Nc1ccc(Cl)c(S(=O)(=O)C(C)(F)F)c1O",
    "unit_spec": "×10⁻⁶ cm/s",
    "Papp at 1.5 h, 3 µM": 34.8
  },
  {
    "compound": "CC1=CCC[C@H]1NC(=O)Nc1ccc(Cl)c(S(=O)(=O)C2CCN(CC(F)F)CC2)c1O",
    "unit_spec": "×10⁻⁶ cm/s",
    "Papp at 1.5 h, 3 µM": 17.7
  },
  {
    "compound": "CC1=CCC[C@H]1NC(=O)Nc1ccc(Cl)c(S(=O)(=O)C2(CCF)CCOCC2)c1O",
    "unit_spec": "×10⁻⁶ cm/s",
    "Papp at 1.5 h, 3 µM": 33.7
  },
  {
    "compound": "CC1=CCC[C@H]1NC(=O)Nc1ccc(Cl)c(S(=O)(=O)C2CCN(CCF)CC2)c1O",
    "unit_spec": "×10⁻⁶ cm/s",
    "Papp at 1.5 h, 3 µM": 21.2
  }
]

Quick note, Papp at 1.5 h, 3 µM for CC1=CCC[C@H]1NC(=O)Nc1ccc(Cl)c(S(=O)(=O)C2(C)CCCOC2)c1O (stereo not given in full) landed at 26.7

Quick note, Papp at 1.5 h, 3 µM for CC1=CCC[C@H]1NC(=O)Nc1ccc(Cl)c(S(=O)(=O)[C@H]2C[C@H](N(C)C)C2)c1O landed at 20.3

Quick note, Papp at 1.5 h, 3 µM for COCC(C)S(=O)(=O)c1c(Cl)ccc(NC(=O)N[C@@H]2CCC=C2C)c1O (stereo not given in full) landed at 28.2

Quick note, Papp at 1.5 h, 3 µM for CC1=CCC[C@H]1NC(=O)Nc1ccc(Cl)c(S(=O)(=O)C(F)(F)CN(C)C)c1O landed at 26.6

Quick note, Papp at 1.5 h, 3 µM for CC1=CCC[C@H]1NC(=O)Nc1ccc(Cl)c(S(=O)(=O)C2CC3(COC3)C2)c1O landed at 12.4

Quick note, Papp at 1.5 h, 3 µM for CC1=CCC[C@H]1NC(=O)Nc1ccc(Cl)c(S(=O)(=O)C(C)(C)[C@H]2CCOC2)c1O landed at 33.1

Quick note, Papp at 1.5 h, 3 µM for CC1=CCC[C@H]1NC(=O)Nc1ccc(Cl)c(S(=O)(=O)C(C)(C)CF)c1O landed at 65.4

Quick note, Papp at 1.5 h, 3 µM for CC1=CCC[C@H]1NC(=O)Nc1ccc(Cl)c(S(=O)(=O)[C@H]2C[C@H](N3CCCC3)C2)c1O landed at 20.5

Quick note, Papp at 1.5 h, 3 µM for CC1=CCC[C@H]1NC(=O)Nc1ccc(Cl)c(S(=O)(=O)C2(C)CCOC2)c1O (stereo not given in full) landed at 31.8

Quick note, Papp at 1.5 h, 3 µM for CC1=CCC[C@H]1NC(=O)Nc1ccc(Cl)c(S(=O)(=O)C2CCN(C3CCC3)CC2)c1O landed at 32

====

target_of_assay: C-X-C chemokine receptor type 2 (Homo sapiens, UniProt P25025)
Sequence (P25025 whole entry, the tested form may be a part): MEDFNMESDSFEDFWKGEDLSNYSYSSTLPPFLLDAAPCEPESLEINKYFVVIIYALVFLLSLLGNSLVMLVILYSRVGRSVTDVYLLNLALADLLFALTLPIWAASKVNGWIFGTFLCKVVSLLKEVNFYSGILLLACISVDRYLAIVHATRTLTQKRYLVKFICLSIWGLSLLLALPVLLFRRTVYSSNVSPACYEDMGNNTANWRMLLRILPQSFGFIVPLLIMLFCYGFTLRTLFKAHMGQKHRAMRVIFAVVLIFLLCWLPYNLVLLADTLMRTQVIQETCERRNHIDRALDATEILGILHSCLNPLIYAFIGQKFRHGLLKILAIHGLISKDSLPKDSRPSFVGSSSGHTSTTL
assay_notes: Antagonist activity at TEV protease cleavage site linked GAL4-VP16-fused recombinant human CXCR2 expressed in cells assessed as inhibition of […] human CXCL1-stimulated beta-arrestin recruitment by CCF4-AM-fluorescence based FRET assay
Format: cell-based
assay_setup: read-out: pIC50 (converted)
measurement_kind: IC50 (nM)
Note: unit nM is implicit; provide only the numeric part.

Below, 3 compounds whose answers are already recorded.
[
  {
    "compound": "CC1=CCC[C@H]1NC(=O)Nc1ccc(Cl)c(S(=O)(=O)C2CCN(C3CCC3)CC2)c1O",
    "target_of_assay": "C-X-C chemokine receptor type 2 (Homo sapiens, UniProt P25025)",
    "IC50, nM": 0.398
  },
  {
    "compound": "CC1=CCC[C@H]1NC(=O)Nc1ccc(Cl)c(S(=O)(=O)C(C)(C)CF)c1O",
    "target_of_assay": "C-X-C chemokine receptor type 2 (Homo sapiens, UniProt P25025)",
    "IC50, nM": 0.631
  },
  {
    "compound": "O=C(Nc1ccc(Cl)c(S(=O)(=O)C2COC2)c1O)N[C@H]1CCC=C1Cl",
    "target_of_assay": "C-X-C chemokine receptor type 2 (Homo sapiens, UniProt P25025)",
    "IC50, nM": 2510
  }
]

Quick note, IC50 for CC(C)S(=O)(=O)c1c(Cl)ccc(NC(=O)NC2CCC=C2F)c1O (racemic) landed at 10

Quick note, IC50 for CC1=CCC[C@H]1NC(=O)Nc1ccc(Cl)c(S(=O)(=O)C2CCN(CC(F)F)CC2)c1O landed at 2.51

Quick note, IC50 for CC(C)S(=O)(=O)c1c(Cl)ccc(NC(=O)Nc2cccc(F)c2Cl)c1O landed at 0.398

Quick note, IC50 for CCC1(S(=O)(=O)c2c(Cl)ccc(NC(=O)N[C@@H]3CCC=C3C)c2O)CCOCC1 landed at 0.316

Quick note, IC50 for CC1=CCC[C@H]1NC(=O)Nc1ccc(Cl)c(S(=O)(=O)C(F)(F)CN(C)C)c1O landed at 2

Quick note, IC50 for CC1=C(Cl)CCC1NC(=O)Nc1ccc(Cl)c(S(=O)(=O)C(C)C)c1O (racemic) landed at 3.16

Quick note, IC50 for CC1=CCC[C@H]1NC(=O)Nc1ccc(Cl)c(S(=O)(=O)C(C)(C)[C@H]2CCOC2)c1O landed at 1.58

Quick note, IC50 for CC1=CCC[C@H]1NC(=O)Nc1ccc(Cl)c(S(=O)(=O)C2(C)CCN(C3CCC3)CC2)c1O landed at 3.98

Quick note, IC50 for CC1=CCC[C@H]1NC(=O)Nc1ccc(Cl)c(S(=O)(=O)C(C)(C)C)c1O landed at 1

Quick note, IC50 for CC(C)S(=O)(=O)c1c(Cl)ccc(NC(=O)NC2CCC=C2Cl)c1O (racemic) landed at 1

Quick note, IC50 for CC1=CCC[C@H]1NC(=O)Nc1ccc(Cl)c(S(=O)(=O)C2(F)CCOC2)c1O (some centres not stated) landed at 0.794

Quick note, IC50 for CC1CCCCC1NC(=O)Nc1ccc(Cl)c(S(=O)(=O)C(C)C)c1O (racemic) landed at 316

Quick note, IC50 for CC1=CCC[C@H]1NC(=O)Nc1ccc(Cl)c(S(=O)(=O)C2(CF)CCOCC2)c1O landed at 1.26
